Test system: Nakaseomyces glabratus
Test: Antifungal activity against Candida glabrata assessed as fungal growth inhibition incubated for 72 hrs by CLSI based susceptibility test
Type: functional
quantity.kind: MIC50
Remember to quote the unit after the number.

{"columns": ["compound", "quantity.kind", "reported.result"],
 "data": [
  ["COC(=O)[C@@H](Cn1ccnc1)NCc1cccc(OCc2cccc(-c3ccccc3)c2C)c1", "MIC50", "1 µg/mL"],
  ["Cc1c(COc2cccc(CN[C@H](Cn3cncn3)C(=O)OC(C)C)c2)cccc1-c1ccccc1", "MIC50", "0.25 µg/mL"],
  ["COC(=O)[C@@H](Cn1ccnc1)NC(=O)C1CCCN(Cc2cccc(-c3ccccc3)c2C)C1 (some centres not stated)", "MIC50", "2 µg/mL"],
  ["CCOC(=O)[C@@H](Cn1ccnc1)NCc1cccc(OCc2cccc(-c3ccccc3)c2C)c1", "MIC50", "1 µg/mL"],
  ["Cc1c(CN2CCCC(C(=O)N[C@H](Cn3ccnc3)C(=O)OC(C)C)C2)cccc1-c1ccccc1 (some centres not stated)", "MIC50", "0.5 µg/mL"],
  ["CCOC(=O)[C@@H](Cn1cncn1)NC(=O)C1CCCN(Cc2cccc(-c3ccccc3)c2C)C1 (some centres not stated)", "MIC50", "0.5 µg/mL"]
]}

Prompt: Please give the measured MIC50 for this compound: CC(C)OC(=O)[C@@H](Cn1ccnc1)NC(=O)C1CCCN(C(=O)c2cccc(-c3ccccc3)c2)C1 (some centres not stated)
Completion: 0.25 µg/mL
